Where do these numbers come from? They come from patent US9776997B2.

MEC by entry:
Target: recombinant guanylate cyclase reporter cell line (Rattus norvegicus, UniProt P19686+P20595)
Construct: expressed in transfected cells; host or cells: recombinant reporter cell line
Sequence (P19686 whole entry): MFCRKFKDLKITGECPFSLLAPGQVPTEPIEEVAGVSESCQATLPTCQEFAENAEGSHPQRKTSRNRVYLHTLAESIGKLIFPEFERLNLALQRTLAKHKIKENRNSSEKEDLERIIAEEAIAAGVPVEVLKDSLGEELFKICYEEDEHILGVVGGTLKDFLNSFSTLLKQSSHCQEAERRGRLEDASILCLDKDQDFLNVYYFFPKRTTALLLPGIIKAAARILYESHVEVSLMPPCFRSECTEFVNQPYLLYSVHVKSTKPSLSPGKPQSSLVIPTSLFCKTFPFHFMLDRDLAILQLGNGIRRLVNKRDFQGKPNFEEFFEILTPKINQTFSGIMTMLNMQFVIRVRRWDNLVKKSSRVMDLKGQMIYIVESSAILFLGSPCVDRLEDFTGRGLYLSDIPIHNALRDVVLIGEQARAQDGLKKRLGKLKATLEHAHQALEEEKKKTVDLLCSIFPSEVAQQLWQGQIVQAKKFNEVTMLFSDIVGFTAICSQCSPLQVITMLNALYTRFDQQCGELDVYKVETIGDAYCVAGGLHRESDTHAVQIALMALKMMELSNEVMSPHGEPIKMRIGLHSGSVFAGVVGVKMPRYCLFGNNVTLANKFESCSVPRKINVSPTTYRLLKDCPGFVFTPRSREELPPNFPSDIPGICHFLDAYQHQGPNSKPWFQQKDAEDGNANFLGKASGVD
Sequence (P20595 whole entry): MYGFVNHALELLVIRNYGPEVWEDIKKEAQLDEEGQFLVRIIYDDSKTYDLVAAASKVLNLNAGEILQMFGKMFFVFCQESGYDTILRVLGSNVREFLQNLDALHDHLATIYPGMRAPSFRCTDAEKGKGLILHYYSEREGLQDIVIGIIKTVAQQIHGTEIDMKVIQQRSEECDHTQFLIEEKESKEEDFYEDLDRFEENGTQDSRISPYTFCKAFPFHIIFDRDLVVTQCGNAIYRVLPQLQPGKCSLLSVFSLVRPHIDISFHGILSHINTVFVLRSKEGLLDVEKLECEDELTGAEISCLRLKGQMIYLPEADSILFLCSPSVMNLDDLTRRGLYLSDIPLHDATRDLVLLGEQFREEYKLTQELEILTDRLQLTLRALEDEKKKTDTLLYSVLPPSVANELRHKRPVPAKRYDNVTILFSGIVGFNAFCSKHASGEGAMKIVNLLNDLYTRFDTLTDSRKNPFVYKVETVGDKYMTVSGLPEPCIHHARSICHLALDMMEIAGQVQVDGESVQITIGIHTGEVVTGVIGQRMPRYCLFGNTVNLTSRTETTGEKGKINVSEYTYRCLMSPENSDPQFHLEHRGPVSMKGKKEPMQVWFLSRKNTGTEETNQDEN
Assay: Effect on a recombinant guanylate cyclase reporter cell line
Format: cell-based
Conditions: MEC = minimum effective concentration; in some cases mean values for individual determinations
Description: B-2. Effect on a Recombinant Guanylate Cyclase Reporter Cell Line The cellular effect of the inventive compounds is determined using a recombinant guanylate cyclase reporter cell line, as described in F. Wunder et al., Anal. Biochem. 339, 104-112 (2005). Representative MEC values (MEC=minimum effective concentration) for the inventive compounds are shown in the table below (in some cases as mean values for individual determinations): […]
Counter-ions that a name gives are not always drawn.
Your answer should be a plain number; it is taken to be in µM.

Example cases with answers are listed next.
>>> reported_result("Cc1cc(OCc2c(F)cccc2F)c2nc(C)c(-c3nccc(C(=O)NC4CC4)n3)n2c1 [Example 81, trifluoroacetate]")
3.0
>>> reported_result("Cc1nc2c(OCc3c(F)cccc3F)cccn2c1-c1ccc(C(N)=O)cc1 [Example 40]")
3.0
>>> reported_result("Cc1nc2c(OCC3CCCCC3)cccn2c1-c1nnc(C2CCS(=O)(=O)C2)o1 (centres unmarked) [Example 73]")
3.0
>>> reported_result("COC(=O)CCn1cc(-c2c(C)nc3c(OCc4c(F)cccc4F)cc(C)cn23)cn1 [Example 102]")
0.1
>>> reported_result("Cc1nc2c(OCc3c(F)cccc3F)cccn2c1-c1cccc(Br)c1 [Example 13]")
0.3

## Input Need MEC, item Cc1nc2c(OCc3c(F)cccc3F)cccn2c1-c1ccsc1 [Example 14]
## Output 0.3

## Input Please do the same for Cc1nc2c(OCc3c(F)cccc3F)cccn2c1-c1nc(N)n(CC(F)(F)F)n1 [Example 125] as well.
## Output 3.0

## Input Please do the same for Cc1cc(OCc2c(F)cccc2F)c2nc(C)c(-c3cnn(CC(C)(C)O)c3)n2c1 [Example 116] as well.
## Output 0.01

====

MEC by entry:
target: recombinant guanylate cyclase reporter cell line (Rattus norvegicus, UniProt P19686+P20595); construct: expressed in transfected cells; host or cells: recombinant reporter cell line; assay: Effect on a recombinant guanylate cyclase reporter cell line; type: cell-based; settings: MEC = minimum effective concentration; in some cases mean values for individual determinations
Your answer should be a plain number; it is taken to be in µM.

>>> reported_result("Cc1nc2c(OCC3CCCCC3)cccn2c1-c1nnc(-c2ncccn2)o1 [Example 62]")
3.0
>>> reported_result("Cc1ccc(-c2c(C)nc3c(OCc4c(F)cccc4F)cccn23)cc1 [Example 30]")
3.0
>>> reported_result("Cc1cc(OCc2c(F)cccc2F)c2nc(C)c(-c3cnn(CCO)c3)n2c1 [Example 91]")
0.1
>>> reported_result("COC(=O)CC(C)n1cc(-c2c(C)nc3c(OCc4c(F)cccc4F)cc(C)cn23)cn1 (stereo not drawn) [Example 105]")
0.01
>>> reported_result("Cc1cc(OCc2c(F)cccc2F)c2nc(C)c(-c3noc(CC(C)(C)N)n3)n2c1 [Example 131]")
1.0
>>> reported_result("CCOC(=O)c1cccc(-c2c(C)nc3c(OCc4c(F)cccc4F)cccn23)c1 [Example 18]")
1.0
>>> reported_result("Cc1cc(OCc2c(F)cccc2F)c2nc(C)c(-c3cn[nH]n3)n2c1 [Example 82]")
0.1
>>> reported_result("Cc1nc2c(OCc3c(F)cccc3F)cccn2c1-c1cn[nH]n1 [Example 134]")
1.0

Lab note: next compound to report on.
## Input Need MEC, item CCOc1ccc(-c2c(C)nc3c(OCc4c(F)cccc4F)cccn23)cc1 [Example 10]
## Output 1.0
